test system: Proteus mirabilis 9709068 (ESBL); test: Growth and enzymatic activity on ChromID CPS-based selective media; format: cell-based; conditions: 18 h at 37° C.; cefpodoxime 4 mg/l (T), cefepime 0.25 mg/l (A), cefamandole 3 mg/l (B), cefuroxime 3 mg/l (C), each with 300 mg/l cloxacillin

{"columns": ["molecule", "Enz act."],
 "data": [
  ["COCC1=C(C(=O)O)N2C(=O)[C@@H](NC(=O)/C(=N\\OC)c3csc(N)n3)[C@H]2SC1", "+"],
  ["CO/N=C(\\C(=O)N[C@@H]1C(=O)N2C(C(=O)O)=C(COC(N)=O)CS[C@H]12)c1ccco1", "+"],
  ["CO/N=C(\\C(=O)N[C@@H]1C(=O)N2C(C(=O)[O-])=C(C[N+]3(C)CCCC3)CS[C@H]12)c1csc(N)n1 [Cefepime, cefepime]", "+"],
  ["Cn1nnnc1SCC1=C(C(=O)O)N2C(=O)[C@@H](NC(=O)[C@H](O)c3ccccc3)[C@H]2SC1", "−"]
]}
